Target: human GLP-1 receptor (human, UniProt P43220 24-463)
Sequence (P43220 24-463): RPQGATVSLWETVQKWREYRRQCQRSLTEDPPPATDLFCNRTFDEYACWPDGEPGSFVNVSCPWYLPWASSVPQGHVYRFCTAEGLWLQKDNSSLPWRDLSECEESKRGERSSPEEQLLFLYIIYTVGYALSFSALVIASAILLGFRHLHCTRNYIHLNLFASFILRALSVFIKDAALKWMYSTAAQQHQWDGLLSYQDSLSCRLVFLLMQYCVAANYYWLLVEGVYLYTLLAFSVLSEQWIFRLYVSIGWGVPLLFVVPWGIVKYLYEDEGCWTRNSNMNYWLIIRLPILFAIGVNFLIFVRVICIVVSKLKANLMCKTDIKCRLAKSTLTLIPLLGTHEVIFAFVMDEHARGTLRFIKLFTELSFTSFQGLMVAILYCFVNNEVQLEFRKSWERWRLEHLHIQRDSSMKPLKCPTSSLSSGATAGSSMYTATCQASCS
Assay: cell-based or functional assay
Non-standard residues stand in square brackets, D forms with d. No end group written: not given here. 2F,4CF3‑APPA = 2-amino-5-(2-fluoro-4-(trifluoromethyl)phenyl)pentanoic acid; Bip(2'-Et-4'-OMe) = CCc1cc(OC)ccc1-c1ccc(C[C@H](N)C(=O)O)cc1; Nva(5-(3,5-Me2Ph)) = Cc1cc(C)cc(CCC[C@H](N)C(=O)O)c1; 2F‑APPA = 2-amino-5-(2-fluorophenyl)pentanoic acid; αMePhe(2-F) = C[C@](N)(Cc1ccccc1F)C(=O)O; hhPhe = N[C@@H](CCCc1ccccc1)C(=O)O; CNB = not defined here; Aib = CC(C)(N)C(=O)O
Property label: cAMP release, % activity, 100 nM (%)
// note: answer is a bare numeric in %

The following binders have reported results that may help.
H[Aib][CNB]GTFTSD[Bip(2'-Et-4'-OMe)][Nva(5-(3,5-Me2Ph))] (reading uncertain) [Seq. ID. No. 30: H-Aib-(CNB)-GTFTSD-Bip(OMe)-(ADMP)] :: 86
H[Aib][CNB]GTFTSD[Bip(2'-Et-4'-OMe)][2F‑APPA] (reading uncertain) [Seq. ID. No. 77: H-Aib-(CNB)-GTFTSD-Bip(OMe)-(2F-APPA)] :: 87
H[Aib][CNB]GTFTSD[Bip(2'-Et-4'-OMe)][2F,4CF3‑APPA] (reading uncertain) [Seq. ID. No. 81: H-Aib-(CNB)-GTFTSD-Bip(OMe)-(2F, 4CF3-APPA)] :: 99
Ac-H[Aib][CNB]GT[αMePhe(2-F)]TSD[Bip(2'-Et-4'-OMe)][2F‑APPA] (reading uncertain) [Seq. ID. No. 207: CH3CO-H-Aib-(CNB)-GT-(α-Me-2F-Phe)-TSD-Bip(OMe)-(2F-APPA)] :: 89

Next, consider the following binder.
Can you look up the measured cAMP release, % activity, 100 nM of H[Aib][CNB]GTFTSD[Bip(2'-Et-4'-OMe)][hhPhe] (reading uncertain) [Seq. ID. No. 29: H-Aib-(CNB)-GTFTSD-Bip(OMe)-(APPA)] for me?
99

Source of measurements: patent US20120021972A1
